biological target: Tyrosine-protein kinase Lyn (Homo sapiens) (UniProt P07948); conditions: at 1 µM
Sequence (P07948 2-512 limits assumed): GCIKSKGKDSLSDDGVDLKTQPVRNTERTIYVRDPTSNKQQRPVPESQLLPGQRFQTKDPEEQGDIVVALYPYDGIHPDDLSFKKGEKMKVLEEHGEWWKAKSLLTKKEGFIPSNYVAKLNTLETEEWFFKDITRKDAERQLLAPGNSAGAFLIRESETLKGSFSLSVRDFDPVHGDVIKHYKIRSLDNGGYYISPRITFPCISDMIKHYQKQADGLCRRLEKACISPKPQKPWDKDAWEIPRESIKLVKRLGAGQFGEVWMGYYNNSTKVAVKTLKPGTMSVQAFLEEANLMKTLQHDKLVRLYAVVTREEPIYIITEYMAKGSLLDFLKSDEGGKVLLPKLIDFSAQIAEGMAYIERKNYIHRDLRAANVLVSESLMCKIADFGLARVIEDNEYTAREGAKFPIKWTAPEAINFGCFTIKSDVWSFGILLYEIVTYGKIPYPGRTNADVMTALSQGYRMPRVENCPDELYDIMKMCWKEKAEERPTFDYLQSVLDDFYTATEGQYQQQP
RESULT TYPE: residual activity (%)
Kindly provide the numeric value in % only, without the unit symbol.

>>> df
                                   molecule        result_type  result_value
0  CC(C)(C)c1nc2c3ccc(F)cc3c3c(=O)[nH]ccc3c2[nH]1  residual activity            65
1    O=C1NC(=O)c2c1c1c3ccccc3[nH]c1n1cncc21  residual activity            57
2  c1ccc(-c2cnc(Nc3ccc(OCCN4CCCC4)cc3)s2)cc1  residual activity            29
3  COc1cc2nccc(Oc3ccc(NC(=S)NC(=O)c4ccccc4C)cc3)c2cc1OC  residual activity             0

API: value(readout= residual activity, system= Tyrosine-protein kinase Lyn (Homo sapiens) (UniProt P07948), query= "CCCCc1c(-c2ccc(OC)cc2)[nH]c2nccnc12" )
37

Also need "CC(C)(C)n1nc(Cc2cccc3ccccc23)c2c(N)ncnc21" , thanks.
10

Also need "COc1ccc2c(c1)c(C1=C(c3c[nH]c4ccccc34)C(=O)NC1=O)cn2CCCN(C)C" , thanks.
63

Also need CSc1nc(-c2ccc(F)cc2)c(-c2ccnc(NC(C)c3ccccc3)c2)[nH]1 (configuration not stated) , thanks.
52

Also need "O=S(=O)(c1cccc2cnccc12)N1CCCNCC1" , thanks.
83

Also need "Cn1sc(=O)n(Cc2ccccc2)c1=O" , thanks.
82

Also need "NC(=O)c1ccc(-c2nc(-c3ccc4c(c3)OCCO4)c(-c3ccccn3)[nH]2)cc1" , thanks.
83

Also need "O=C(O)/C=C/c1cc(Br)c(Br)c(Br)c1Br" , thanks.
70

Also need "O=c1c(-c2ccc(F)cc2)c(-c2ccncc2)[nH]n1-c1ccc(Cl)cc1" , thanks.
75

Also need "O=C1C(Cl)=C(N2C(=O)CCC2=O)C(=O)c2ccccc21" , thanks.
87

Also need "CCN(CC)CCNC(=O)c1c(C)[nH]c(/C=C2\C(=O)Nc3ccc(Cl)cc32)c1C" , thanks.
2

Also need "O=C(c1cc2cc(O)ccc2[nH]1)c1cc2cc(O)ccc2[nH]1" , thanks.
6

Also need "Cc1cc(C)c(/C=C2\C(=O)Nc3ccccc32)[nH]1" , thanks.
46
